This collection of values is drawn from ChEMBL document CHEMBL1147610.

- Test Target: Phosphodiesterase 4 (Homo sapiens, UniProt P27815+Q08499+Q07343+Q08493)
- Measurement Protocol: Inhibition of PDE4 from U937 monocytic cells
- Format: cell-based
- Recorded Conditions: u-937
Measurement Name: IC50 (nM)

>  <Structure Smiles String>
COc1ccc([C@]2(C#N)C[C@H]3C[C@@H](C(=O)O)C[C@H]3C2)cc1OC

>  <Unit Text>
nM

>  <Recorded Number>
160

$$$$
>  <Structure Smiles String>
COc1ccc([C@]2(C#N)C[C@H]3C[C@@H](C(=O)O)C[C@H]3C2)cc1OCC1CC1

>  <Unit Text>
nM

>  <Recorded Number>
100

$$$$
>  <Structure Smiles String>
COc1ccc([C@]2(C#N)C[C@H]3C[C@@H](C(=O)O)C[C@H]3C2)cc1OC1CCCC1

>  <Unit Text>
nM

>  <Recorded Number>
9

$$$$

1 = COc1ccc([C@]2(C#N)C[C@H]3C[C@@H](C(=O)NO)C[C@H]3C2)cc1OC
2 = COc1ccc([C@]2(C#N)C[C@H]3C[C@H](C(=O)O)C[C@H]3C2)cc1OC1CCCC1
Ask: Please tell me which of the two, 1 or 2 , has the higher reported IC50 value. Mark your selection by writing its label.
Reply: 2

a = COc1ccc([C@]2(C#N)C[C@H]3C[C@@H](C(=O)NO)C[C@H]3C2)cc1OC(C)C
b = COc1ccc([C@]2(C#N)C[C@H]3C[C@@H](C(=O)NO)C[C@H]3C2)cc1OC1Cc2ccccc2C1
c = CCOc1cc([C@]2(C#N)C[C@H]3C[C@@H](C(=O)O)C[C@H]3C2)ccc1OC
d = COc1ccc([C@]2(C#N)C[C@H]3C[C@@H](C(=O)O)C[C@H]3C2)cc1OC1Cc2ccccc2C1
e = COc1ccc([C@]2(C#N)C[C@H]3C[C@@H](C(=O)O)C[C@H]3C2)cc1OC(C)C
Ask: Put the items in sequence by IC50, from largest down. Use the labels to give the ranking in the order requested.
Reply: e, c, a, d, b

P = COc1ccc([C@]2(C#N)C[C@H]3C[C@@H](C(=O)NO)C[C@H]3C2)cc1OC1CCCC1
Q = COc1ccc([C@]2(C#N)C[C@H]3C[C@@H](C(=O)NO)C[C@H]3C2)cc1OCC1CC1
Ask: Lower value of IC50 belongs to which: P or Q ? Mark your selection by writing its label.
Reply: P
